Molecular target: T1, human Nectin-4-eGFP on T24 cells (clone 3) (human, UniProt Q96NY8 32-510)
T1 sequence: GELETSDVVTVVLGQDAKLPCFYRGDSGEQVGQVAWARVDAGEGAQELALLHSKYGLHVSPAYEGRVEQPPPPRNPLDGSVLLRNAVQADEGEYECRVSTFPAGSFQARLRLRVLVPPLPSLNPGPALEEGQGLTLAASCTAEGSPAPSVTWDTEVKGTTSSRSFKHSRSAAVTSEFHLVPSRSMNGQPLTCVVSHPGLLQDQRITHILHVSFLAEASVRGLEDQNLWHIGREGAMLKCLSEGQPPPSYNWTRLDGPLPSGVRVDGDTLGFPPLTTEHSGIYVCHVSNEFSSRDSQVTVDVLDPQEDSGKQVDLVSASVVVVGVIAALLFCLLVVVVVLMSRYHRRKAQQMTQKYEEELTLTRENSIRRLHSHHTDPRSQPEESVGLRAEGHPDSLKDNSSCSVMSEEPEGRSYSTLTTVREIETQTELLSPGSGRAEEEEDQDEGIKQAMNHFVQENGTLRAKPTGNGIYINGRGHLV
Assay: cell-based or functional assay
metric: EC50 (nM) of nectin-4-eGFP signal loss
Kindly answer with a numeric value in nM, unit omitted.

1. Ab6 ADC (Ab6 conjugated as in Formula XI, DAR of 8) (antibody, human IgG1, lambda, L234A L235A, V domains shown, camptothecin analog linker-payload of Formula XI on cysteine thiols after full reduction, DAR of 8 per antibody; positions not given, Antibody-drug conjugate of Ab6; also called Ab6 (ADC column)) VH: QVQLVQSGAEVKKPGASVKVSCKASGYTFTGYYMHWVRQAPGQGLEWMGIINPSGGSTTYAQKFQGRVTMTRDTSTSTVYMELSSLRSEDTAVYYCARGRLGTYFDYWGQGTLVTVSS VL: SYVLTQPPSVSVAPGQTARITCGGNNIGSKSVHWYQQKPGQAPVLVVYDDSDRPSGIPERFSGSNSGNTATLTISRVEAGDEADYYCQVWDRSSDQVVFGGGTKLTVLG
2.26
2. Ab3 (antibody, human IgG1, kappa, L234A L235A, V domains shown, Unconjugated antibody; also called Antibody 3; nectin-4 antibody Ab3) VH: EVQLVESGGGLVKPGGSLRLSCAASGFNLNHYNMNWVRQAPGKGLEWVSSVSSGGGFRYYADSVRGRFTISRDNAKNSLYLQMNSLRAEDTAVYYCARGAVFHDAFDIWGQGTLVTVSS VL: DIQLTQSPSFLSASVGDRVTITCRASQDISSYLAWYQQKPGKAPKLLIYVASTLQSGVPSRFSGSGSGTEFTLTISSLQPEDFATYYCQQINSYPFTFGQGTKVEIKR
1.3

// below: EC50 (nM) of nectin-4-eGFP signal loss requested for another binder
Name the recorded EC50 (nM) of nectin-4-eGFP signal loss of the binder listed here: Ab1a ADC (Ab1a conjugated as in Formula XI, DAR of 8) (antibody, human IgG1, kappa, L234A L235A, V domains shown, camptothecin analog linker-payload of Formula XI on cysteine thiols after full reduction, DAR of 8 per antibody; positions not given, Antibody-drug conjugate of Ab1a; also called Ab1a (ADC column)) VH: QVQLVQSGAQVKKPGASVKVSCKASGYTFTGYYIHWVRQAPGQGLEWMGWINPNSGGTNYAQKFQGRVTMTRDTSISTAYMELSRLRSDDTAVYFCAREDWDFDYWGQGTLVTVSS VL: EIVLTQSPGTLSLSPGERATLSCRTSQSVSSSYLAWYQQKPGQAPRLLIYGASNRATDIPDRFSGSGSGTDFTLTINRLEPEDFAVYYCQQYGSSPITFGQGTRLEIKR
2.3
